src = patent US20230287088A1

# EXPERIMENTAL_SYSTEM: SARS-CoV-2 S1 protein (HIS tag, active trimer; Acro Biosystems #SPN-C52H8) (SARS-CoV-2, UniProt P0DTC2 16-1213)
# ASSAY_SUMMARY: ELISA on coated S active trimer
REPORTED_ENDPOINT: EC50 (ng/mL)
Give bare numbers, in ng/mL.

// below: answered binders
BINDER	EC50 [ng/mL]
P043.A.00023.A08 (protein sample ID 446) (antibody, V domains shown) VH: QSVEESGGRLVTPGTPLTLTCTVSGFSLSKYAMSWVRQAPGKGLEWIGIISSGGSTYYASWAKGRFTISKTSSTTVDLKITSPTTEDTATYFCARAGYPGYSPHYFNIWGPGTLVTVSL VL: AIQMTQSPSSLAASVGDTVTITCKASEDIGYELNWYQQKLGIAPKLLIYGANTLESGVPSRFTGSGSETDYTLTISSVQAEDAGIYYCQQGYSTPPTFGAGTKVEIK	5.6
P043.A.00109.B12 (antibody, V domains shown, also called 468; protein sample ID 468) VH: QSLEESGGGLVKPEGSLTLTCKASGFDLNTYYYMCWVRQAPGKGLEWIACIATSDSGHTAYASWARGRFTISKTSSTTVTLQMTGLTAADTATYFCARGGRSVGDGVDLWGPGTLVTVSS VL: DIVMTQTPASVEAAVGGTVTIKCQASQSISSWLAWYQQKPGQPPKLLIYDASDLASGVPSRFKGSGSGTEFTLTISDLESADAATYYCQSYLYVESGSHGFGFGGGTEVVVR	10
P043.A.00020.D06 (protein sample ID 444) (antibody, V domains shown) VH: QSVEESGGRLVTPGTPLTLTCTVSGFSLSSYAMNWVRQAPGKGLEWIGIISSSGSTYYASWAKGRFTISKTSTTVDLKITSPTTEDTATYFCARVGAGYAGYGYDNYYGMDPWGPGTLVTVSS VL: AIQMTQSPSSLAASVGDTVTITCKASEDIGYGLNWYQQKLGIAPKLLIYGANTLESGVPSRFSGSGSETDYTLTISSVQAEDAGIYYCQQGYSTPLTFGAGTKVEIK	11.2

Lab note: each binder below needs its EC50 filled in.
1. P043.A.00024.C11 (protein sample ID 451) (antibody, V domains shown) VH: QSVEESGGRLVTPGTPLTLTCTVSGFSLSSYAMSWVRQAPGKGLEWIGIISSSGTTYYASWAKGPFTISKTSTTVDLKITSPTTEDTATYFCARGGAGYGYAHYYGMDPWGPGTLVTVSS VL: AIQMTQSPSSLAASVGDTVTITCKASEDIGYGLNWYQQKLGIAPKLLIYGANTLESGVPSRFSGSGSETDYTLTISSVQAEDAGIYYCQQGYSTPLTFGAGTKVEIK
2. P043.A.00023.E05 (antibody, V domains shown, also called 443; protein sample ID 443) VH: QSLEESGGRLVTPGTPLTLTCTVSGFSLSSYAMSWVRQAPGKGLEWIGIISSSGSTYYASWAKGRFTISKTSTTVDLKITSPTTEDTATYFCARDASSRGYYYYYGMDPWGPGTLVTVSS VL: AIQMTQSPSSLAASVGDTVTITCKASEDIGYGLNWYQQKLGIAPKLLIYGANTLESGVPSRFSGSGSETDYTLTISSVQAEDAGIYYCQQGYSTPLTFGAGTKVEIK

Response given:
[8.8, 9]
